# SYSTEM_UNDER_TEST: IL-1RtI (Homo sapiens, UniProt P14778)
# Construct: made in house; host or cells: recombinant host cells (one form soluble from baculovirus transformed host cells; another PIG-tailed and cleaved from the cell surface)
# Sequence (P14778 18-336): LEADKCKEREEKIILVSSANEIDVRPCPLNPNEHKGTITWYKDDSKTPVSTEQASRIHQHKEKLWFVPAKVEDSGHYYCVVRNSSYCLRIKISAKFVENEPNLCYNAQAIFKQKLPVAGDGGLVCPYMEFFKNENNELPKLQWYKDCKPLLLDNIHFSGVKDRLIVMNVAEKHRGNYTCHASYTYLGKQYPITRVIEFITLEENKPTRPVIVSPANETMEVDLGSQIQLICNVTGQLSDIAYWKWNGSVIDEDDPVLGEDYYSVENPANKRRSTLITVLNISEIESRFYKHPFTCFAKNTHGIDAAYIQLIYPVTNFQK
# TEST_PROTOCOL: Inhibition of 125I-IL-1α binding to IL-1RtI (Example 3)
# DETAILS: inhibition of 125I-IL-1α binding to IL-1RtI; soluble peptide unless marked *
# Description: This example provides the results of experiments conducted to determine an approximate IC50 for certain peptides of the invention. […] After the two hour incubation, the wells were rinsed three times with ice cold PBS (a semi-automated cell harvesting device was used to conduct the rinse). […] After the 20 minute incubation, about 75 μl of the suspension was counted on a gamma counter, and the IC50 for each peptide was determined using computer assistance and the results of the gamma counting.
Where a SMILES comes first, the peptide text is derived from it. [ ]: non-standard residue; d: D form. Bpa = N[C@@H](Cc1ccc(C(=O)c2ccccc2)cc1)C(=O)O; Pip = O=C(O)[C@@H]1CCCCN1; Aze = O=C(O)[C@@H]1CCN1
TEST_READOUT: IC50

{"columns": ["MOLECULE", "IC50"],
 "data": [
  ["C[C@H](N)C(=O)N[C@@H](CCC(=O)O)C(=O)N[C@@H](Cc1c[nH]c2ccccc12)C(=O)N[C@H](C(=O)N1CCC[C@H]1C(=O)NCC(=O)N[C@@H](Cc1ccc(O)cc1)C(=O)N[C@@H](Cc1c[nH]c2ccccc12)C(=O)N[C@@H](CCC(N)=O)C(=O)N1CC[C@H]1C(=O)N[C@@H](Cc1ccc(O)cc1)C(N)=O)[C@@H](C)O [AEWTPGYWQJY--NH2] (H-AEWTPGYWQ[Aze]Y-NH2)", "≤ 100000 nM"],
  ["C[C@H](NC(=O)[C@H](CCC(=O)O)NC(=O)[C@@H](N)Cc1ccccc1)C(=O)N[C@H](C(=O)N1CCC[C@H]1C(=O)NCC(=O)N[C@@H](Cc1ccc(O)cc1)C(=O)N[C@@H](Cc1c[nH]c2ccccc12)C(=O)N[C@@H](CCC(N)=O)C(=O)N1CC[C@H]1C(=O)N[C@@H](Cc1ccc(O)cc1)C(N)=O)[C@@H](C)O [FEATPGYWQJY--NH2] (H-FEATPGYWQ[Aze]Y-NH2)", "≤ 100000 nM"],
  ["C[C@@H](O)[C@H](NC(=O)[C@H](Cc1c[nH]c2ccccc12)NC(=O)[C@H](CCC(=O)O)NC(=O)[C@@H](N)Cc1ccc(C(=O)c2ccccc2)cc1)C(=O)N1CCC[C@H]1C(=O)NCC(=O)N[C@@H](Cc1ccc(O)cc1)C(=O)N[C@@H](Cc1ccc(O)cc1)C(=O)N[C@@H](CCC(N)=O)C(=O)N1CC[C@H]1C(=O)N[C@@H](Cc1ccc(O)cc1)C(N)=O [Bpa--EWTPGYYQJY--NH2] (H-[Bpa]EWTPGYYQ[Aze]Y-NH2)", "≤ 500 nM"]
]}

Form field: IC50 recorded for C[C@@H](O)[C@H](NC(=O)[C@H](Cc1c[nH]c2ccccc12)NC(=O)[C@H](CCC(=O)O)NC(=O)[C@@H](N)Cc1ccccc1)C(=O)N1CCCC[C@H]1C(=O)NCC(=O)N[C@@H](Cc1ccc(O)cc1)C(=O)N[C@@H](Cc1c[nH]c2ccccc12)C(=O)N[C@@H](CCC(N)=O)C(=O)N1CC[C@H]1C(=O)N[C@@H](Cc1ccc(O)cc1)C(N)=O [FEWTPecGYWQJY--NH2] (H-FEWT[Pip]GYWQ[Aze]Y-NH2) with IL-1RtI (Homo sapiens, UniProt P14778) (enter value)
≤ 500 nM

Value wanted: IC50 (IL-1RtI (Homo sapiens, UniProt P14778)) of entry C[C@@H](O)[C@H](NC(=O)[C@H](Cc1c[nH]c2ccccc12)NC(=O)[C@H](CCC(=O)O)NC(=O)[C@@H](N)Cc1ccccc1)C(=O)N1CCC[C@H]1C(=O)NCC(=O)N[C@@H](Cc1c[nH]c2ccccc12)C(=O)N[C@@H](Cc1ccc(O)cc1)C(=O)N[C@@H](CCC(N)=O)C(=O)N1CC[C@H]1C(=O)N[C@@H](Cc1ccc(O)cc1)C(N)=O [FEWTPGWYQJY--NH2] (H-FEWTPGWYQ[Aze]Y-NH2)
≤ 500 nM

* * *

# SYSTEM_UNDER_TEST: IL-1 induced down-regulation of the epidermal growth factor (EGF) receptor in normal human dermal fibroblasts (NHDF) (Homo sapiens)
# TEST_PROTOCOL: Epidermal Growth Factor Receptor Down Regulation Assay
# DETAILS: 37° C., in the presence of IL-1α, 125I-labeled EGF binding, read-out: IC50 (approximate concentration which blocked 50% of the IL-1 induced down regulation of the EGF receptor)
Where a SMILES comes first, the peptide text is derived from it. [ ]: non-standard residue; d: D form. Aze = O=C(O)[C@@H]1CCN1
TEST_READOUT: IC50 (nM)
Supply the numeric figure in nM, leaving out any unit text.

{"columns": ["COMPOUND", "ENDPOINT_UNIT", "IC50"],
 "data": [
  ["CC(=O)N[C@@H](Cc1ccccc1)C(=O)N[C@@H](CCC(=O)O)C(=O)N[C@@H](Cc1c[nH]c2ccccc12)C(=O)N[C@H](C(=O)N1CCC[C@H]1C(=O)NCC(=O)N[C@@H](Cc1c[nH]c2ccccc12)C(=O)N[C@@H](Cc1ccc(O)cc1)C(=O)N[C@@H](CCC(N)=O)C(=O)N1CC[C@H]1C(=O)N[C@@H](Cc1ccc(O)cc1)C(N)=O)[C@@H](C)O [AcFEWTPGWYQJY--NH2] (Ac-FEWTPGWYQ[Aze]Y-NH2)", "nM", 500]
]}

Could you now consider this next compound?
Dear colleague, I am looking for the recorded IC50 of the following compound: CC(=O)N[C@@H](Cc1ccccc1)C(=O)N[C@@H](CCC(=O)O)C(=O)N[C@@H](Cc1c[nH]c2ccccc12)C(=O)N[C@H](C(=O)N1CCC[C@H]1C(=O)NCC(=O)N[C@@H](Cc1ccc(O)cc1)C(=O)N[C@@H](Cc1ccc(O)cc1)C(=O)N[C@@H](CCC(N)=O)C(=O)N1CC[C@H]1C(=O)N[C@@H](Cc1ccc(O)cc1)C(N)=O)[C@@H](C)O [AcFEWTPGYYQJY--NH2] (Ac-FEWTPGYYQ[Aze]Y-NH2)
500

* * *

# SYSTEM_UNDER_TEST: IL-1RtI (Homo sapiens)
# Construct: made in house; host or cells: recombinant host cells (one form soluble from baculovirus transformed host cells; another PIG-tailed and cleaved from the cell surface)
# TEST_PROTOCOL: Inhibition of 125I-IL-1α binding to IL-1RtI (Example 3)
# DETAILS: inhibition of 125I-IL-1α binding to IL-1RtI; soluble peptide unless marked *
# Protocol: This example provides the results of experiments conducted to determine an approximate IC50 for certain peptides of the invention. […] After the two hour incubation, the wells were rinsed three times with ice cold PBS (a semi-automated cell harvesting device was used to conduct the rinse). […] After the 20 minute incubation, about 75 μl of the suspension was counted on a gamma counter, and the IC50 for each peptide was determined using computer assistance and the results of the gamma counting.
pIC50: −log10 of the molar value. Where a SMILES comes first, the peptide text is derived from it. [ ]: non-standard residue; d: D form. Bpa = N[C@@H](Cc1ccc(C(=O)c2ccccc2)cc1)C(=O)O; Aze = O=C(O)[C@@H]1CCN1; Aib = CC(C)(N)C(=O)O
TEST_READOUT: pIC50

{"columns": ["MOLECULE", "pIC50"],
 "data": [
  ["C[C@@H](O)[C@H](NC(=O)[C@H](Cc1c[nH]c2ccccc12)NC(=O)[C@H](CCC(=O)O)NC(=O)[C@@H](N)Cc1ccccc1)C(=O)N1CCC[C@H]1C(=O)NC(C)(C)C(=O)N[C@@H](Cc1ccc(O)cc1)C(=O)N[C@@H](Cc1c[nH]c2ccccc12)C(=O)N[C@@H](CCC(N)=O)C(=O)N1CC[C@H]1C(=O)N[C@@H](Cc1ccc(O)cc1)C(N)=O [FEWTPAibYWQJY--NH2] (H-FEWTP[Aib]YWQ[Aze]Y-NH2)", "≥ 6.30"]
]}

Then this molecule:
Find pIC50 (IL-1RtI (Homo sapiens)) for the entry C[C@@H](O)[C@H](NC(=O)[C@H](Cc1c[nH]c2ccccc12)NC(=O)[C@H](CCC(=O)O)NC(=O)[C@@H](N)Cc1ccccc1)C(=O)N1CCC[C@H]1C(=O)NCC(=O)N[C@@H](Cc1ccc(O)cc1)C(=O)N[C@@H](Cc1ccc(O)cc1)C(=O)N[C@@H](CCC(N)=O)C(=O)N1CC[C@H]1C(=O)N[C@@H](Cc1ccc(C(=O)c2ccccc2)cc1)C(N)=O [FEWTPGYYQJ--Bpa--NH2] (H-FEWTPGYYQ[Aze][Bpa]-NH2)
≥ 4.00

Data provenance is patent US5861476A.
